Data credit: patent US8883771B2

- assayed_target: XIAP linker-BIR2-BIR3 (residues 120-356) (Homo sapiens (Human), UniProt P98170)
- Sequence (P98170 120-356): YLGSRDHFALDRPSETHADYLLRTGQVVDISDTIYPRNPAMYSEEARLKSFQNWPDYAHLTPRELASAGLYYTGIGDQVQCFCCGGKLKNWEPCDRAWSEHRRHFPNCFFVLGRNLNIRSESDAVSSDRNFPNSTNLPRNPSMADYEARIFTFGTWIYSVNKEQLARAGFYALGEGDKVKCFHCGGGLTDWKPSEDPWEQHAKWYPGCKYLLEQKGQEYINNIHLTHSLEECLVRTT
- assay_procedure: Fluorescence polarization (FP) based competitive binding assay, XIAP linker-BIR2-BIR3
- condition_label: FP competitive assay, Smac-1F probe; read-out: Binding Affinities IC50 (nM) XIAP Protein
measure: IC50

Recorded results for 2 compounds are shown here.
1. CN[C@@H](C)C(=O)N[C@H]1CN(C(=O)Nc2ccc(NC(=O)N3CC[C@H]4CC[C@@H](C(=O)N[C@@H]5CCC[C@H]5c5ccccc5)N4C(=O)[C@@H](NC(=O)[C@H](C)NC)C3)cc2)CC[C@H]2CC[C@@H](C(=O)N[C@@H]3CCC[C@H]3c3ccccc3)N2C1=O [Example 32]: < 3000 nM
2. CN[C@@H](C)C(=O)N[C@H]1CN(C(=O)Nc2ccc(NC(=O)N3CC[C@H]4CC[C@@H](C(=O)N[C@@H]5CCC[C@@H]5c5ccccc5)N4C(=O)[C@@H](NC(=O)[C@H](C)NC)C3)cc2)CC[C@H]2CC[C@@H](C(=O)N[C@@H]3CCC[C@@H]3c3ccccc3)N2C1=O [Example 34]: < 1000 nM

Note: attention shifts to another entry.
Documented IC50 of CN[C@@H](C)C(=O)N[C@H]1CN(C(=O)NCCCCCCCCNC(=O)N2CC[C@H]3CC[C@@H](C(=O)N[C@@H]4CCCc5ccccc54)N3C(=O)[C@@H](NC(=O)[C@H](C)NC)C2)CC[C@H]2CCC(C(=O)N[C@@H]3CCCc4ccccc43)N2C1=O (stereo partly drawn) [Example 4] : < 10 nM

====

- Test system: MDA-MB-231 breast cancer cell line
- assay_procedure: Inhibition of cell growth in MDA-MB-231 breast cancer cell line
- Assay type: cell-based, human
- condition_label: Homo sapiens; MDA-MB-231 breast cancer cell line
Quick reference: IC50 of the listed items.

1. CN[C@@H](C)C(=O)N[C@H]1CN(C(=O)NCCCCCCNC(=O)N2CC[C@H]3CC[C@@H](C(=O)N[C@H]4CC[C@@H]4c4ccccc4)N3C(=O)[C@@H](NC(=O)[C@H](C)NC)C2)CC[C@H]2CCC(C(=O)N[C@H]3CC[C@@H]3c3ccccc3)N2C1=O (some centres unmarked): < 1000 nM
2. CN[C@@H](C)C(=O)N[C@H]1CN(S(=O)(=O)CCCCCCS(=O)(=O)N2CC[C@H]3CC[C@@H](C(=O)NC(c4ccccc4)c4ccccc4)N3C(=O)[C@@H](NC(=O)[C@H](C)NC)C2)CC[C@H]2CCC(C(=O)NC(c3ccccc3)c3ccccc3)N2C1=O (some centres unmarked): < 1000 nM
3. CN[C@@H](C)C(=O)N[C@H]1CN(C(=O)NCc2cccc(CNC(=O)N3CC[C@H]4CC[C@@H](C(=O)N[C@@H]5CCCc6ccccc65)N4C(=O)[C@@H](NC(=O)[C@H](C)NC)C3)c2)CC[C@H]2CCC(C(=O)N[C@@H]3CCCc4ccccc43)N2C1=O (some centres unmarked): < 100 nM
4. CN[C@@H](C)C(=O)N[C@H]1CN(C(=O)NCCCCCCCCNC(=O)N2CC[C@H]3CC[C@@H](C(=O)N[C@@H]4CCCc5ccccc54)N3C(=O)[C@@H](NC(=O)[C@H](C)NC)C2)CC[C@H]2CCC(C(=O)N[C@@H]3CCCc4ccccc43)N2C1=O (some centres unmarked): < 100 nM
5. CN[C@@H](C)C(=O)N[C@H]1CN(C(=O)NCCCCCCNC(=O)N2CC[C@H]3CC[C@@H](C(=O)N[C@H]4C[C@H](c5ccccc5)C4)N3C(=O)[C@@H](NC(=O)[C@H](C)NC)C2)CC[C@H]2CCC(C(=O)N[C@H]3C[C@H](c4ccccc4)C3)N2C1=O (some centres unmarked): < 10000 nM

Documented IC50 of CN[C@@H](C)C(=O)N[C@H]1CN(S(=O)(=O)CCC/C=C/CCCS(=O)(=O)N2CC[C@H]3CC[C@@H](C(=O)NC(c4ccccc4)c4ccccc4)N3C(=O)[C@@H](NC(=O)[C@H](C)NC)C2)CC[C@H]2CCC(C(=O)NC(c3ccccc3)c3ccccc3)N2C1=O (some centres unmarked) : < 1000 nM

Documented IC50 of CN[C@@H](C)C(=O)N[C@H]1CN(S(=O)(=O)CC/C=C/CCS(=O)(=O)N2CC[C@H]3CC[C@@H](C(=O)NC(c4ccccc4)c4ccccc4)N3C(=O)[C@@H](NC(=O)[C@H](C)NC)C2)CC[C@H]2CCC(C(=O)NC(c3ccccc3)c3ccccc3)N2C1=O (some centres unmarked) : < 1000 nM

Documented IC50 of CN[C@@H](C)C(=O)N[C@H]1CN(S(=O)(=O)CCCCCCCCS(=O)(=O)N2CC[C@H]3CC[C@@H](C(=O)NC(c4ccccc4)c4ccccc4)N3C(=O)[C@@H](NC(=O)[C@H](C)NC)C2)CC[C@H]2CCC(C(=O)NC(c3ccccc3)c3ccccc3)N2C1=O (some centres unmarked) : < 1000 nM
